- System: TK-10
- method description: NCI tumour cell line growth inhibition, 48 h
Activity calls are given as the source filed them. Cut-off read from the data, not from the text of the source: active = GI50 up to about 1.1 µM and inactive = higher.
measured metric: GI50

Recorded results for 3 molecules are shown here.
molecule	measured metric	reported value
C=C1OC(c2ccccc2NC)=NC12CCCCC2	GI50	> 100 µM (inactive)
CC1CCC2C(C)C3C(CC4C5CC=C6CC(OC7OC(CO)C(O)C(OC8OC(CO)C(O)C(O)C8O)C7OC7OC(C)C(O)C(O)C7O)CCC6(C)C5CCC43C)N2C1 (stereo not given)	GI50	16.3 µM (inactive)
CC(C)c1ccc(O)c(Cc2cc(C(C)C)cc(Cc3cc(C(C)C)ccc3O)c2O)c1	GI50	1.93 µM (inactive)

Short answer for `C=C/C=C(\NC(=O)C(Cl)(Cl)Cl)[Si](C)(C)C` : GI50 was > 100 µM (inactive)

Short answer for `Cn1c2ccccc2c2cc(N3CCCC3)c3c(c21)C(=O)N(c1ccccc1)C3=O` : GI50 was > 100 µM (inactive)

---

- Test system: SK-MEL-28
- method description: NCI tumour cell line growth inhibition, 48 h
Active and inactive are the calls of the source. Rule as the data show it: active = GI50 up to about 1.1 µM and inactive = higher.
measured metric: GI50

molecule	GI50
O=C(N/C(=C\c1ccc(Cl)cc1)c1nc2ccccc2[nH]1)c1ccccc1	18.5 µM (inactive)

Short answer for `FC(F)(F)c1ccc2nc(Sc3ccccn3)cnc2c1` : GI50 was > 100 µM (inactive)

Short answer for `COC(=O)c1cc2c(=O)n(C)c3ccccc3n2c1C(=O)OC` : GI50 was 70.5 µM (inactive)

Short answer for `Nc1ccc2nc(Nc3ccc(F)cc3)cnc2c1` : GI50 was > 100 µM (inactive)

---

- Tested on: RXF 393
- method description: NCI tumour cell line growth inhibition, 48 h
Calls of active or inactive are those of the source. Cut-off read from the data, not from the text of the source: active = GI50 up to about 1.1 µM and inactive = higher.
Choose one outcome from this list and give only that: t for active, f for inactive

QUERY: Please state the recorded outcome for this compound: `C=C(CN(C)C)C(=O)c1ccccc1C`
RESULT: f

QUERY: Please state the recorded outcome for this compound: `CCCNC(=S)N/C=C1\C(=O)Nc2ccccc2C1=O`
RESULT: f

QUERY: Please state the recorded outcome for this compound: COc1cc2cc(C(=O)N3CC(COS(C)(=O)=O)c4c3cc(N)c3ccccc43)[nH]c2c(OC)c1OC (stereo unspecified)
RESULT: t

QUERY: Please state the recorded outcome for this compound: `Cn1ncc2c(Cl)ncnc21`
RESULT: f

QUERY: Please state the recorded outcome for this compound: `C(=N\NC1=NCCN1)/c1ccc(-c2cn3cc(/C=N/NC4=NCCN4)ccc3n2)cc1`
RESULT: f

QUERY: Please state the recorded outcome for this compound: `CC(=O)Oc1ccc(/C=C/C(=O)O[C@H]2CCCC[C@@H]2OC(=O)/C=C/c2ccc(OC(C)=O)c(OC(C)=O)c2)cc1OC(C)=O`
RESULT: f

QUERY: Please state the recorded outcome for this compound: `CN1C=Cc2nccc3cc4c(c1c23)OCO4`
RESULT: t

QUERY: Please state the recorded outcome for this compound: `O=[As](O)(O)c1ccc(/N=N/c2ccc(O)cc2)cc1`
RESULT: f

QUERY: Please state the recorded outcome for this compound: `O=C(/C=C/c1ccc(Cl)c(Cl)c1)c1ccc2ccccc2c1`
RESULT: f

---

The reader will find reported GI50 values listed item by item below.
- System: XF498
- method description: NCI tumour cell line growth inhibition, 48 h
Active and inactive are the calls of the source. Cut-off read from the data, not from the text of the source: active = GI50 up to about 1.1 µM and inactive = higher.

Recorded results for 2 compounds are shown here.
compound	GI50
O=c1oc2ccccc2[n+]([O-])c1-c1ccccc1	> 100 µM (inactive)
O=c1nc(NC2CCCCO2)ccn1CCO (configuration not stated)	51.4 µM (inactive)

The value of GI50 recorded for COC1=CC(=O)C2(C=C1OC)OC[C@H]1Oc3c(ccc4c3C=CC(C)(C)O4)C(=O)[C@H]12 (some centres not stated) when tested on XF498 reads 40.9 µM (inactive)

The value of GI50 recorded for `O=C(CC(=O)n1nc(-c2ccccc2)c(/N=N/c2ccc([N+](=O)[O-])cc2)c1-c1ccccc1)Nc1ccc(Cl)cc1` when tested on XF498 reads 26.2 µM (inactive)

The value of GI50 recorded for CC1=CCC23C(C1)OC(Br)(C=CC2(C)O)C3(C)C (configuration not stated) when tested on XF498 reads > 100 µM (inactive)

---

The reader will find reported GI50 values listed item by item below.
- Tested on: M14
- method description: NCI tumour cell line growth inhibition, 48 h
Active and inactive are the calls of the source. Rule as the data show it: active = GI50 up to about 1.1 µM and inactive = higher.

Recorded results for 4 compounds are shown here.
compound	GI50
N#CC(C/C=C/c1ccccc1)NNC(=O)c1c(Cl)c(Cl)c(Cl)c(Cl)c1-c1nc2cc(C(=O)c3ccccc3)ccc2[nH]1 (centres undefined)	14.9 µM (inactive)
CC1=C2CN(C(=O)OCC(C)C)CCC2C2=C(C(=O)c3ccccc3C2=O)C1C (centres undefined)	> 10 µM (inactive)
CC(=O)Oc1ccc(/C=C/C(=O)O[C@H]2CCCC[C@@H]2OC(=O)/C=C/c2ccc(OC(C)=O)c(OC(C)=O)c2)cc1OC(C)=O	7.14 µM (inactive)
O=C=NCCCCCCN1C(=O)N2C(c3ccccc3)N(CCCCCCN=C=O)C(=O)N2C1c1ccccc1 (centres undefined)	> 100 µM (inactive)

Short answer for `Cn1ncc2c(Cl)ncnc21` : GI50 was > 100 µM (inactive)

Short answer for `Cc1cc2c(cc1C)[n+]([O-])c(C(=O)CC(=O)C(=O)Nc1ccccc1C(C)C)c(C)[n+]2[O-]` : GI50 was > 100 µM (inactive)

Short answer for CC1CC(C[N+](=O)[O-])CC2(C1)OCCO2 (centres undefined) : GI50 was > 100 µM (inactive)

Short answer for `COC(=O)C1(C(=O)OC)CC2=C(S(=O)(=O)c3ccccc3)C[C@H](S(=O)(=O)c3ccccc3)[C@H]2C1` : GI50 was > 100 µM (inactive)

Short answer for `CC(=O)Nc1ccc2c(C(=O)O)c(C)c(O)nc2n1` : GI50 was > 100 µM (inactive)

---

- Tested on: A498
- method description: NCI tumour cell line growth inhibition, 48 h
Calls of active or inactive are those of the source. Rule as the data show it: active = GI50 up to about 1.1 µM and inactive = higher.
The reader will find reported GI50 values listed item by item below.

Recorded results for 5 compounds are shown here.
compound	GI50
O=C(OCCOC(=O)c1ccc2c(c1)C1(SCCS1)c1ccccc1-2)c1ccc2c(c1)C1(SCCS1)c1ccccc1-2	> 100 µM (inactive)
COc1ccc(C(=C(C#N)C#N)c2ccc(OC)cc2)cc1	> 100 µM (inactive)
CCN(CC)CC1CCCCN1CC(=O)N1c2ccccc2NC(=O)c2ccccc21 (configuration not stated)	> 100 µM (inactive)
CC[N+](C)(CC)CCN1C(=O)c2ccccc2S1(=O)=O	> 100 µM (inactive)
c1ccc2c(c1)Nc1c3ccccc3nc3cccc-2c13	2.51 µM (inactive)

Short answer for `COc1cc(C)cc2c1C(=O)C(Br)=CC2=O` : GI50 was 20.1 µM (inactive)

Short answer for `CCOC(=O)C#Cc1ccc(C#CC(=O)OCC)cc1` : GI50 was 14.2 µM (inactive)

Short answer for `CCn1c(C)nc([N+](=O)[O-])c1Sc1ncc[nH]1` : GI50 was > 100 µM (inactive)

Short answer for `O=c1[nH]nc(Cc2ccc([N+](=O)[O-])cc2)n1CCO` : GI50 was > 100 µM (inactive)

Short answer for COCC1OC([P+](c2ccccc2)(c2ccccc2)c2ccccc2)CC(OC)C1OC (configuration not stated) : GI50 was 37.2 µM (inactive)

Short answer for `Cc1cc(=O)c2c([nH]1)NS(=O)(=O)NC2=O` : GI50 was > 100 µM (inactive)

Short answer for `CN(Cc1cnc2nc(N)nc(N)c2n1)c1ccc(C(=O)NCCS(=O)(=O)O)cc1` : GI50 was > 100 µM (inactive)

---

The reader will find reported GI50 values listed item by item below.
- Tested on: HOP-18
- method description: NCI tumour cell line growth inhibition, 48 h
Active and inactive are the calls of the source. Rule as the data show it: active = GI50 up to about 1.1 µM and inactive = higher.

Short answer for `CCOC(=O)Nc1ccc(S(=O)(=O)OC)cc1.CCOC(=O)Nc1ccc(S(=O)(=O)OC)cc1.NNC(=O)c1ccncc1` : GI50 was > 50 µM (inactive)

Short answer for `CN(C)CCNC(=O)c1cc2ccccc2c2nc3ccccc3nc12` : GI50 was 5.82 µM (inactive)

Short answer for CCCCCCCC(=O)OCC1OC(OC)C(NC(=O)N(CCCl)N=O)C(O)C1O (stereo not given) : GI50 was 18.5 µM (inactive)

Short answer for CC1CC(C[N+](=O)[O-])CC2(C1)OCCO2 (stereo not given) : GI50 was > 100 µM (inactive)

Short answer for Cc1ccc([S+](c2ccccc2)c2cc(C)ccc2C)cc1.O=C(OC(C(=O)[O-])C(OC(=O)c1ccccc1)C(=O)O)c1ccccc1 (stereo not given) : GI50 was 12.3 µM (inactive)

Short answer for CCOC(=O)NC/C=C/COC1CCCCO1 (stereo not given) : GI50 was > 100 µM (inactive)

Short answer for `CN(C)C=C1C(=O)N(C)C(=O)N(C)C1=O` : GI50 was > 100 µM (inactive)

Short answer for O=C(Nc1c(Cl)cc([N+](=O)[O-])cc1Cl)C(=O)C(C(=O)c1ccncc1)C1OC(=O)c2ccccc21 (stereo not given) : GI50 was > 100 µM (inactive)

Short answer for `CCOc1ccc(NC(=O)/C(=C/c2ccccc2)C(C)=O)cc1` : GI50 was 12.9 µM (inactive)

Short answer for `O=C(CC(=O)n1nc(-c2ccccc2)c(/N=N/c2ccc([N+](=O)[O-])cc2)c1-c1ccccc1)Nc1ccc(Cl)cc1` : GI50 was 26.4 µM (inactive)
